assay: yeast display, Sf9 membrane polyspecificity reagent, FACS + sequencing; frameworks hold sequencing errors
measurement-kind: polyreactivity (PSR sort gate)

Example sequences with recorded polyreactivity (PSR sort gate):
Lookup: For the sequence QVQLVESGGGLVQAGGSLRLSCAASGRTFSWYAMGWYRQAPGKERELVAAITSVGSTNYADSVKGRFTISRDNAKNTVYLQMNSLKPEDTAVYYCAATIFVYSYRYYYWGQGTQVTVSS , give its reported polyreactivity (PSR sort gate).
Found: low polyreactivity

Lookup: Respond only with polyreactivity (PSR sort gate) recorded for QVQLVESGGGLVQAGGSLRLSCAASGRIFARYAMRMYRQAPEKERELVDYINSGDNTYYADSVKWRFTISRDNAKNTVYLQMNSLKPDATAVYYCAAVVGRRQSSSSRFEYDYWGQGTQVTVSS
Found: low polyreactivity

Lookup: Query polyreactivity (PSR sort gate) for QVQLGESGAGLVQAGGSLRLSCAASGRIFLIKAMGCDRQAPGKERELVAAIRRSVGSTYYADSVKGRFTISRDNAKNTVYLQMNSLKPEDTAVYYCATRDYYTYTGRTRYYYWGQGTQVTVSS
Found: high polyreactivity

Lookup: Consider the sequence QVHLVESGGGIVQAGGSLRLSCAASGRTFRKYAMGWYRQAPGKEMELVAAISWSGGSTYYANSVKGRFTISRDHAKNTVYLQLNSLIPEDPAVYYCAATAYYYYDYDYWGQGTQVTVSS . State its measured polyreactivity (PSR sort gate).
Found: low polyreactivity

Consider now this further sequence.
Lookup: Supply measured polyreactivity (PSR sort gate) of QVQLVESGGGLVQAGGSLRLSCAASGRTFKRYAMGWYRQAPGKERELVAAIRQRGGSTYYADSVMGRFTISRDNAKNTVYLQMNSLKPEDTAVYYCAAVIPRPYSVGFDYWGQGTQVTVSS in your reply.
Found: high polyreactivity

###

test: yeast display, Sf9 membrane polyspecificity reagent, FACS + sequencing; frameworks hold sequencing errors
measurement-kind: polyreactivity (PSR sort gate)

Lookup: # return recorded polyreactivity (PSR sort gate) for entry QVQLVESGGCLVQAGGSLRLSCAASGSTFGYNTMGWYRQAPGKERELDAAITGTGRTNYADSVKGRFTISRDNAKNNVYLQMYSLKPEDTAVYYCNARQAGTRYKYGYYGRYYWGHGTQVTVSS
Found: high polyreactivity

Lookup: Entry QVQRVESGGGLVQAGGRLRLSCAASGSTFRQYAMGWYRQAPGKERELVAAITGGGGSTYYADSVKGRFTISRDNAKNTVYLQMNSLKPEDTAVYYCNAVHRYERDYWGQGTQVTVSS needs its polyreactivity (PSR sort gate) filled in; supply it.
Found: high polyreactivity

###

assay: yeast display, Sf9 membrane polyspecificity reagent, FACS + sequencing; frameworks hold sequencing errors
measurement-kind: polyreactivity (PSR sort gate)

Below are worked cases with known answers.
Lookup: Return polyreactivity (PSR sort gate) (reported value) for this sequence: QVQLVESGGGLVQAGGSLRLSCAASGRTFRANAMGWYRQAPGKERELVAAISQRGGNTYYADSVKGRFTISRDKAKNTVYIQMNSLKPEDTAVYYCAADITTYRRGRYEYEYWGQGTQVTVSS
Found: high polyreactivity

Lookup: Please give the documented polyreactivity (PSR sort gate) of QVQLVESGGGLVQAGGSLRLSCAASGFICGLNAMGLYRQAPGKERELVAAIRSASSTNYADSVKGRFTISRDNAKNTVYLQMNSLKPEDTAVYYCAAEYVTYQQGFWGYDYWGQGTQVTVSS
Found: low polyreactivity

Lookup: Output measured polyreactivity (PSR sort gate) for this item: QVHLEESGGGLVQAGGSLRLRCAASGFTFGHYTMGWYRQAPGKERELVAAITWRGGTYYADSVKGRFTISRDNAKNTVYLQMNSLKPEDTAVYYCNARFGQTVKGTYGRYYYWGQGTQVTVSS
Found: high polyreactivity

Lookup: Retrieve polyreactivity (PSR sort gate) measured for QVQHVDSGVCLVQAGGSLRLSCDASGSIFGSYAMGWYRQPPGKERELVAAISKSVGNTYYADSVKGRFTISRDNAKNTVYLQMNSLKPEVTAVYYCAAYGFYRWRGYDYWGQGTQVTVSS and print it.
Found: high polyreactivity

Lookup: Read the entry QLHLVESAGGLVQAGGSLRLSCVYSGLTQPYAMGWYRHAPGKEREWVAGITCRGASTYYADSVKGRFTISRDNAKNTVYLQLNSLKPEDTAVYYCAARSTIQRRGYYGYRVGLSEYGYWGQGTQVTVSS and write its reported polyreactivity (PSR sort gate).
Found: low polyreactivity

Lookup: Output polyreactivity (PSR sort gate) of QVQLVESGGGLVQAGGSLRLSCAASGRTFTAYTMGWYRQAPGKERELVDSISSGVTYADSVKGRFTISRDNAKNTVYLQMNSLKPEDTAVYYCAARLWYVQGYVPYVHHRFDYWGQGTQVTVSS
Found: low polyreactivity

Lookup: # return recorded polyreactivity (PSR sort gate) for input QVQLVESGGGLVQAGGSLRLSCAASGFTFTRYAMGWYRQAPGKERELVAAISRIGGSTYYADSVKGRFTISRDNAKNTVYLQMNSLKPEDTAVYYCAAYKVPSYDYWGQGTQVTVSS
Found: high polyreactivity

Lookup: Give the measured polyreactivity (PSR sort gate) for QVQLVESGGGLVQAGGSLRLSSAASGFIFYQYAMGWYRQAPGKERELVAAISKSGGNTYYADSVKGRFTISRDNAKNTVYLQMNSLKPEDSAVYYCAADRGQRGMYYWGQGTQVSVSS
Found: high polyreactivity

New cases:
Lookup: Please report the measured polyreactivity (PSR sort gate) for QVQLVESGGGLDQAGGSLRLSCAASGLTFYSYAMGWYRQAPGKERELVAAISSSGGNTYYADSVKGRFTISRDNAKNTVYLQMNSLKPEDTAVYYCAARYTAYIQYGMGYWGQGTQVTVSS
Found: high polyreactivity

Lookup: Item QDQLVESGGGLVQAGGSLRLSCAASGSTFDSYDMGWYRQAPGKERELVAAISGGGGTYYADSVKGRFTISRDNAKNTVYLQMNSLKPEDTAVYYCAARTNGWPGMGYWGQGTQVTVSS : provide polyreactivity (PSR sort gate)
Found: high polyreactivity

Lookup: Give recorded polyreactivity (PSR sort gate). QVQLVESGGGLVQAGGSLRLSCAASGRTFENYAMGWYRQAPGKERELVAAISKSGGSTYYADSVKGRFTISRDNAKNTVYLQMNSLKPEDTAVYYCAARLPGYYGIGDYWGQGTQVTVSS
Found: high polyreactivity

###

assay: yeast display, Sf9 membrane polyspecificity reagent, FACS + sequencing; frameworks hold sequencing errors
measurement-kind: polyreactivity (PSR sort gate)

Some sequences with recorded polyreactivity (PSR sort gate):
Lookup: Report polyreactivity (PSR sort gate) for QVQLVESGGGLVQAGGSLRLSCAASGRTSGVYAMGWYRQAPGKERELVAAITSDSTYYADSVKGRFTISRDNAKNTVYLQMNSLKPEDTAVYYCAADSLARRYDYWGQGTQVTVSS
Found: low polyreactivity

Lookup: Let me know recorded polyreactivity (PSR sort gate) for QVQLVESGGGIVQAGGSLRLSCAASGSTFVSNAMGWYRQAPGKERELVAAITTGGSTYYADSVKGRFTISRDNAKNTVYLQMNSLKPEDTAVYYCAADSVLNWFWGQGTQVTVSS , thanks.
Found: low polyreactivity

Lookup: Identify measured polyreactivity (PSR sort gate) associated with QVQLVESGGGLVQAGGSLRLSCAASGRIFWYNAMGWYRQAPGKQRELVAAITSGGRTYYADSVKGRFTISRDNAKNTVYLQMNSLKPEDTAVYYCAATYPSYTYDYWGQGTQVTVSS
Found: low polyreactivity

Lookup: Return the recorded polyreactivity (PSR sort gate) value; entry: QVQLEVSAGGLVQAGGSLRLSCAASGSTFGYYAMGWYRQAPGKEWELVAAITSGASTNYSDSVKGRFTISRDNAKNSVYLQMNSLKPEDTAVYYCAAGFQTRTPLNEFDYWGQGTQVTVSS
Found: low polyreactivity

Lookup: Hello, please tell me recorded polyreactivity (PSR sort gate) for this one: QVQLVESGGGLVQAGGSLRLICAASGSIIAINVMGWYRQAPGKEREFVAAISVRSGSTYYADSVKGRFTISRDNAKNTVYLQMNSLKPEDTAVYYCAARTSRFWRGGGLDYWGQGTQVTVSS
Found: high polyreactivity

Lookup: Look up and state reported polyreactivity (PSR sort gate) for QVQLVESGGGLVQAGGSLRLSCAASGLTFGGNAMGWYRQAPGKERELVAAISWSDDTTDYADSVKGRFTISRDNAKNTVYLQMNSLKPEDTAVYYCADRLPFEHVDYWGQGTQVTVSS
Found: low polyreactivity

---
Lookup: Give a short answer stating reported polyreactivity (PSR sort gate) for QVQLVESGGGLVQAGGSLRLSCAASGGIFVVYGMGWYRQAPGKERELVAAISWRGGSTYYADSVKGRFTISRDNAKNTVYLQMNSLKPEDTAVSYCAADQYYGGYDYWGQGTQVTVSS .
Found: low polyreactivity

Lookup: Look up and report measured polyreactivity (PSR sort gate) for this entry: QVQLVESGGGLVQAGGSLRLSCAASGRIFYRYAMGWYRQAPGKERELVASIRFSDGSTYYADSVKGRFTISRDNAKNTVYLQMNSLKPEDTALYYCAARPLRSRNGYYWGQGTQVTVSS
Found: high polyreactivity

Lookup: Indicate its recorded polyreactivity (PSR sort gate); the sequence in question is QDQLVESGGGLVQAGGSLRLSCAASGLTFEKYAMGWYRQAPGKERELVAAISQDGGSTYYADSVKGRFTISRDNAKNTVYLQMNSLKPEDTAVYYCAAEDPDSWLPWDLFDYWGQGTQVTVSS
Found: low polyreactivity

Lookup: Annotate the sequence QVQLVESGGGLVQAGGSLRLSCAASGSIFRRYAMGWYRQAPGKERELVAAISTRGGSTYYADSVKGRFTISRDNAKNTVYLQMNSLKPEDTAVYYCAVKGSGGPKYDYWGQGTQVTVAS with its measured polyreactivity (PSR sort gate).
Found: high polyreactivity

Lookup: Read the entry QVQLVESGVGLVQAGGSLRLSCAASGRIFTPYAMGWYRQAPGKERELVAAITGSGGITYYADSVKGRFTISRDNSKNTVYLQMNSLKPEDTAVYYCNADTPVWDGHAYPGDYWGQGTQVTVSS and write its reported polyreactivity (PSR sort gate).
Found: low polyreactivity

Lookup: For the sequence QVQLVDSGGRLVQAGGRLRLTCAASGFILSYNMGWYRQAPGKERELVATISYNDVSTYYADSVKGRFTISRDNAKNTVYLQMNSLKPEDTAVDYCNAQFPIITRRGYDYWGQGTQVNVSS , give its measured polyreactivity (PSR sort gate) value.
Found: high polyreactivity

Lookup: Note polyreactivity (PSR sort gate) for the sequence shown: PVQLVESGGGLVQAGGSLRLSCAASGSIFASYAMGWYREAPGKERELVAAISSSSGSTYYADSVKGRFTISRDNAKNTVYLQMTSLKPEDTAVYYCAAESGRRIKYWRGYYYWGQGTQVTVSS
Found: low polyreactivity

Lookup: Recall and state the measured polyreactivity (PSR sort gate) for QVQLVESGGGLVQAGGSLRLSCAASGSIFVTYALGWYRQAPGKERELVAVLTWGGGSTYYADSVKGRFTISRDNAKNTVYLQMNSLKPEDTAVYYCAKDSYYYRRDVTVDYWGQGTQVTVSS .
Found: low polyreactivity

Lookup: Look up and report measured polyreactivity (PSR sort gate) for this entry: QVQLVESGGGLFQAGGSLRLSCAASGRTFRVYAMGWYRQAPGKEREFVAAISYSGGRTNYADSVKGRFTISRDYAKNTVYLQKNSLKPEDTAVYYCAARYTWAEGDYWGQGTQVTVSS
Found: low polyreactivity

Lookup: Check the records and state polyreactivity (PSR sort gate) for QVHLVESGGGLVQAGGSLRLSCAASGNIIDSNAMGWYRHAPGKERELVAAITWSGGSTYYADSVKGRFTISRDNAKTTVYLPMNSLKPADTAVYYCAAYAQKRYYWGQGTQVTVSS
Found: high polyreactivity

Lookup: # return recorded polyreactivity (PSR sort gate) for input QVQLVESGGGLVQAGGSLRISCAASGSTFRLYAMGWYRQAPGKERELVAAISSNGVRTYYADSVKGRFTISRDNAKNTVYLQMNSLKPEDTAVYYCAARVYPAYPRGYDYWGQGTQVTVSS
Found: high polyreactivity

Lookup: Entry QVQLVESGGGLVQAGGSLRLSCAASGLIFDSYAMGWYRQAPGKERELVAAITYTGGSTYYADSVKGRFTISRDNAKNTVYLQMNSLKPEDTAVYYCAAVTRYAGRIRYGYWGQGTQVTVSS needs its polyreactivity (PSR sort gate) filled in; supply it.
Found: high polyreactivity
